Biological target: UniProtKB P43490
Assay: NMN fluorescence biochemical assay (human recombinant NAMPT enzyme assay)
Everything with AC1.4 Human lower than 0.7 µM is Not fulfilled; everything else, including exactly 0.7 µM, is Fulfilled.

Query string: AC1.4 Human >= 0.7 µM for CC(=O)N1CC2CCC(C1)C2c1ccc(NC(=O)OCc2cnco2)cc1 (centres unmarked) ?
Result string: Not fulfilled

Query string: AC1.4 Human >= 0.7 µM for CCn1nccc1C(=O)N[C@@H](C)c1ccc(NC(=O)OCc2ccc(Cl)cc2)cc1 ?
Result string: Fulfilled

Query string: AC1.4 Human >= 0.7 µM for O=C(Nc1ccc(CC(=O)N2CC[C@@H](O)C2)cc1)OCc1ccc(Cl)cc1 ?
Result string: Fulfilled

Query string: AC1.4 Human >= 0.7 µM for Cc1ocnc1C(=O)NCc1ccc(NC(=O)OCc2ccc(Cl)cc2)cc1 ?
Result string: Fulfilled

Query string: AC1.4 Human >= 0.7 µM for CNS(=O)(=O)N1CCC(Cc2ccc(NC(=O)OCc3ccc(Cl)cc3)cc2)CC1 ?
Result string: Not fulfilled

Query string: AC1.4 Human >= 0.7 µM for CN(C)C(=O)N1CC2CC(C1)C2Cc1ccc(NC(=O)OCc2cnco2)cc1 (centres unmarked) ?
Result string: Not fulfilled

Query string: AC1.4 Human >= 0.7 µM for COc1ccc(C(=O)NCc2ccc(NC(=O)OCc3ccc(Cl)cc3)cc2)cn1 ?
Result string: Fulfilled

* * *

Target: human NAMPT (Homo sapiens (Human))
Assay: NMN fluorescence biochemical assay (human recombinant NAMPT enzyme assay)
Consider the following compounds; for each one, report its AC1.4 Human.
Your answer should be a plain number; it is taken to be in µM.

# AC1.4 Human measured on human NAMPT (Homo sapiens (Human)) for item O=C(Nc1ccc(CN2C(=O)CC3CC32)cc1)OCc1ccc(Cl)cc1 (centres unmarked) [Compound 63] = 0.57

# AC1.4 Human measured on human NAMPT (Homo sapiens (Human)) for item CC1CCN(C(=O)Cc2ccc(NC(=O)OCc3ccc(Cl)cc3)cc2)CC1 [Compound 240] = 2.33

# AC1.4 Human measured on human NAMPT (Homo sapiens (Human)) for item CN(Cc1ccc(NC(=O)OCc2ccc(Cl)cc2)cc1)C(=O)N1CCC1 [Compound 112] = 0.93

# AC1.4 Human measured on human NAMPT (Homo sapiens (Human)) for item CS(=O)(=O)N1CCC(c2ccc(NC(=O)OCc3cnco3)cc2F)CC1 [Compound 415] = 0.18

# AC1.4 Human measured on human NAMPT (Homo sapiens (Human)) for item CC(=O)N1C2CCC1CC(Cc1ccc(NC(=O)OCc3cnco3)cc1)C2 (centres unmarked) [Compound 410] = 0.13

# AC1.4 Human measured on human NAMPT (Homo sapiens (Human)) for item O=C1CN(C(=O)Cc2ccc(NC(=O)OCc3ccc(Cl)cc3)cc2)CCN1 [Compound 235] = 2.22

# AC1.4 Human measured on human NAMPT (Homo sapiens (Human)) for item C[C@H](NC(=O)C1(C)COC1)c1ccc(NC(=O)OCc2ccc(Cl)cc2)cc1 [Compound 189] = 1.64

# AC1.4 Human measured on human NAMPT (Homo sapiens (Human)) for item COC1CN(C(=O)N[C@@H](C)c2ccc(NC(=O)OCc3ccc(Cl)cc3)cc2)C1 [Compound 170] = 1.41

* * *

Target: human NAMPT (Homo sapiens (Human), UniProt P43490)
Sequence (P43490 whole entry): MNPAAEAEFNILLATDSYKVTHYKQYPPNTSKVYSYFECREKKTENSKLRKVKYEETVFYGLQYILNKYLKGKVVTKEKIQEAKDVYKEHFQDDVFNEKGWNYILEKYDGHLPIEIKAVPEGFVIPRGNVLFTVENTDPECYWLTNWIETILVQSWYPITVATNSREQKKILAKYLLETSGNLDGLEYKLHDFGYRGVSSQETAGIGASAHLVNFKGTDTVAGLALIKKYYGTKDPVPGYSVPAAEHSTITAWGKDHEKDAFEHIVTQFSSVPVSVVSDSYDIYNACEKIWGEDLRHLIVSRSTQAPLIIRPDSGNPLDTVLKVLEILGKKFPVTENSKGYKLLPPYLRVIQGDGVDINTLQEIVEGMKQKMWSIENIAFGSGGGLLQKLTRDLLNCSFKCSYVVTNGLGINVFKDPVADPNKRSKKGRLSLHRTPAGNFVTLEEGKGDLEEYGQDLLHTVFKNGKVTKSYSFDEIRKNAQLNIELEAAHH
Test: NMN fluorescence biochemical assay (human recombinant NAMPT enzyme assay)
Reported endpoint: pEC50
Please note pEC50 is a logarithmic value: minus log10 of concentration in mol/L. Answer with that number alone.

pEC50 for CC(C)C(=O)N1C2CCC1CC(Cc1ccc(NC(=O)OCc3cnco3)cc1)C2 (centres unmarked) [Compound 409] is 4.57

pEC50 for O=C(Nc1ccc(CCC2CCN(C(=O)C3COC3)CC2)cc1)OCc1cnco1 [Compound 13] is 4.35

pEC50 for CC(O)(c1ccncc1)c1ccc(NC(=O)OCc2cnco2)cc1 (centres unmarked) [Compound 296] is 4.84

pEC50 for O=C(Nc1ccc(CC2CCNCC2)cc1)OCc1cnco1 [Compound 320] is 4.47

pEC50 for C[C@@H](c1ccc(NC(=O)OCc2ccc(Cl)cc2)cc1)N(C)C(=O)N1CCCC1 [Compound 143] is 4.97

* * *

Tested on: MDCK-MDR1 cells (P-gp, MDR1)
Assay: MDR1-MDCK bidirectional permeability assay
Details: A to B
Reported endpoint: PappAB
// response body must contain only the number

PappAB for Cc1ccc(C(=O)NCc2ccc(NC(=O)OCc3ccc(Cl)cc3)cc2)cn1 is 2.79

PappAB for CN(C)C(=O)N1CCC(CCc2ccc(NC(=O)OCc3cnco3)cc2)CC1 is 5.57

PappAB for O=C(Nc1ccc(CCC2CCN(C3COC3)CC2)cc1)OCc1cnco1 is 13.54

PappAB for CN(C)S(=O)(=O)N1CCC(Cc2ccc(NC(=O)OCc3cnco3)cc2)CC1 is 7.68

PappAB for O=C(NCc1ccc(Cl)cc1)Nc1ccc(CC2CCN(C3COC3)CC2)cc1 [Comparator 1, reference compound] is 1.85

PappAB for CN(C)C(=O)N1CCC(Cc2ccc(NC(=O)OCc3cnco3)cc2F)CC1 is 3.53

PappAB for O=C(Nc1ccc(CC2CCN(CC(F)(F)F)CC2)cc1)OCc1cnco1 is 9.10

PappAB for O=C(Nc1ccc(COC2CCN(C3COC3)CC2)cc1)OCc1ccc(Cl)cc1 is 9.8

* * *

Target: human NAMPT (Homo sapiens (Human), UniProt P43490)
Test: NMN fluorescence biochemical assay (human recombinant NAMPT enzyme assay)
Reported endpoint: EC50 (µM)
Your answer should be a plain number; it is taken to be in µM.

EC50 for CN(C)S(=O)(=O)N1CCC(Cc2ccc(NC(=O)OCc3cnco3)cc2)CC1 is 5.25

EC50 for O=C(Nc1ccc(CC2CCN(CC(F)F)CC2)cc1)OCc1cnco1 is 48.9

EC50 for C[C@H](NC(=O)c1ccnn1C1CCOCC1)c1ccc(NC(=O)OCc2ccc(Cl)cc2)cc1 is 2.57

EC50 for Cc1ccc(C(=O)NCc2ccc(NC(=O)OCc3cn[nH]c3)cc2)cn1 is 16

EC50 for CN(Cc1ccc(NC(=O)OCc2ccc(Cl)cc2)cc1)C(=O)c1ccnn1C is 0.89

EC50 for O=C(Nc1ccc(CN2CCOCC2=O)cc1)OCc1ccc(Cl)cc1 is 6.21

EC50 for CC(C)n1nccc1C(=O)N[C@@H](C)c1ccc(NC(=O)OCc2ccc(Cl)cc2)cc1 is 15.6

EC50 for Cc1ccc(Cc2ccc(NC(=O)OCc3cncs3)cc2)cn1 is 19.7

EC50 for COc1cnn(C)c1C(=O)N[C@@H](C)c1ccc(NC(=O)OCc2ccc(Cl)cc2)cc1 is 3.22

EC50 for CN(C)C(=O)N1CCC2(CC(Cc3ccc(NC(=O)OCc4cnco4)cc3F)C2)C1 (stereo not shown) is 2.96

EC50 for O=C(Nc1ccc(CC(=O)N2CCC(F)CC2)cc1)OCc1ccc(Cl)cc1 is 10.2

EC50 for CN(Cc1ccc(NC(=O)OCc2ccc(Cl)cc2)cc1)C(=O)c1cnco1 is 8.13

EC50 for CCS(=O)(=O)N1CCC(Cc2ccc(NC(=O)OCc3cnco3)cc2)CC12CC2 (stereo not shown) is 5.97

EC50 for CN(C1COC1)S(=O)(=O)c1ccc(NC(=O)OCc2ccc(Cl)cc2)cc1 is 46.3

EC50 for Cc1cnoc1C(=O)NCc1ccc(NC(=O)OCc2ccc(Cl)cc2)cc1 is 13.8

EC50 for CC(=O)N1CCC2(CC(c3ccc(NC(=O)OCc4cnco4)cc3F)C2)C1 (single isomer, unassigned) [Compound 373] is 0.24

EC50 for CO[C@H]1CC[C@@H](NC(=O)Cc2ccc(NC(=O)OCc3ccc(Cl)cc3)cc2)CC1 is 14.5

EC50 for COC1CCN(C(=O)NCc2ccc(NC(=O)OCc3ccc(Cl)cc3)cc2)CC1 is 14.9

EC50 for O=C(Nc1ccc(CCN2CCN(C3COC3)CC2)cc1)OCc1cnco1 is 44.1

EC50 for COc1ncc(C(=O)NCc2ccc(NC(=O)OCc3ccc(Cl)cc3)cc2)cn1 is 4.5

EC50 for CN(C)C(=O)N1CC2CC(C1)C2Cc1ccc(NC(=O)OCc2cnco2)cc1 (stereo not shown) is 6.04

EC50 for CN(Cc1ccc(NC(=O)OCc2ccc(Cl)cc2)cc1)C(=O)c1c(F)cncc1F is 1.82

EC50 for CN(C)S(=O)(=O)N1CC2CC(C1)C2Cc1ccc(NC(=O)OCc2cnco2)cc1 (stereo not shown) is 7.43

EC50 for O=C(Nc1ccc(Cc2ccncc2)cc1)OCc1ccc(CO)cc1 is 26.4

EC50 for O=C(Nc1ccc(CC2CCN(C(=O)N3CCCC3)CC2)cc1)OCc1cnco1 is 13.3

EC50 for CN(Cc1ccc(NC(=O)OCc2ccc(Cl)cc2)cc1)C(=O)c1cncc(F)c1 is 21.3

EC50 for C[C@H](NC(=O)c1ccc(F)cc1)c1ccc(NC(=O)OCc2cnco2)cc1 is 19.2

EC50 for CCC(=O)N1CCC(c2ccc(NC(=O)OCc3cnco3)cc2F)CC1 is 48.3

EC50 for COc1cnn(C)c1C(=O)NCc1ccc(NC(=O)OCc2ccc(Cl)cc2)cc1 is 3.28

EC50 for COc1ccc(COC(=O)Nc2ccc(CNC(=O)c3ccc(C)nc3)cc2)cc1 is 5.89

EC50 for O=C(Nc1ccc(CC2CCN(C3COC3)C3(CC3)C2)cc1)OCc1cnco1 (stereo not shown) is 10.7

EC50 for CCS(=O)(=O)N1CCC(c2ccc(NC(=O)OCc3cnco3)cc2)CC1 is 2.64

EC50 for CN(C)S(=O)(=O)N1CCC(Cc2ccc(NC(=O)OCc3cnco3)cc2)CC12CC2 (stereo not shown) is 3.53

EC50 for CN1CC(C(=O)NCc2ccc(NC(=O)OCc3ccc(Cl)cc3)cc2)CC1=O (stereo not shown) is 39.9
